# ASSAY_TARGET: HIV reverse transcriptase (RT) (Human immunodeficiency virus type 1 group M subtype B)
# ASSAY_INFO: Pre-steady-state observed incorporation rate constant
# Assay type: biochemical, HIV-1
# CONDITION: 5 μM nucleotide
RESULT_TYPE: 6/0.5 mM Mg2+ with the same nucleotide (ratio of kobs; fold slower in 0.5 mM)

As a guide, the following entries are already answered.
[[record]]
molecule = "Cc1cn([C@H]2C[C@H](N)[C@@H](COP(=O)(O)OP(=O)(O)OP(=O)(O)O)O2)c(=O)[nH]c1=O"
assay_result = 3.8

[[record]]
molecule = "Cc1cn([C@H]2CC[C@@H](COP(=O)(O)OP(=O)(O)OP(=O)(O)O)O2)c(=O)[nH]c1=O"
assay_result = 5.1

[[record]]
molecule = "Cc1cn([C@H]2C[C@H](O)[C@@](C)(COP(=O)(O)OP(=O)(O)OP(=O)(O)O)O2)c(=O)[nH]c1=O"
assay_result = 0.88

[[record]]
molecule = "Cc1cn([C@H]2C[C@H](N=[N+]=[N-])[C@@H](CO[P@](=O)(O)O[P@](=O)(O)OP(=O)(O)O)O2)c(=O)[nH]c1=O"
assay_result = 4.5


1: Cc1cn([C@H]2C=C[C@@H](COP(=O)(O)OP(=O)(O)OP(=O)(O)O)O2)c(=O)[nH]c1=O
2: Cc1cn([C@H]2C[C@H](F)[C@@H](COP(=O)(O)OP(=O)(O)OP(=O)(O)O)O2)c(=O)[nH]c1=O
3: Cc1cn([C@H]2C[C@H](O)[C@@H](CO[P@](=O)(O)O[P@@](=O)(O)OP(=O)(O)O)O2)c(=O)[nH]c1=O [dTTP, Deoxythymidine triphosphate]
query: Ordering: ascending 6/0.5 mM Mg2+ with the same nucleotide (ratio of kobs; fold slower in 0.5 mM). Use the labels to give the requested order.
result: 3, 2, 1
(3: 1.6, 2: 2.8, 1: 4.6)

###

# ASSAY_TARGET: HIV reverse transcriptase (RT) (Human immunodeficiency virus type 1 group M subtype B)
# ASSAY_INFO: Pre-steady-state observed incorporation rate constant
# Assay type: biochemical, HIV-1
# CONDITION: 5 μM nucleotide, 0.5 mM free Mg2+, 37 °C
RESULT_TYPE: kobs ± standard deviation (s^–1)

As a guide, the following entries are already answered.
[[record]]
compound = "Cc1cn([C@H]2CC[C@@H](COP(=O)(O)OP(=O)(O)OP(=O)(O)O)O2)c(=O)[nH]c1=O"
assay_result = 1.4

[[record]]
compound = "Cc1cn([C@H]2C[C@H](N=[N+]=[N-])[C@@H](CO[P@](=O)(O)O[P@](=O)(O)OP(=O)(O)O)O2)c(=O)[nH]c1=O"
assay_result = 2.0


I: Cc1cn([C@H]2C=C[C@@H](COP(=O)(O)OP(=O)(O)OP(=O)(O)O)O2)c(=O)[nH]c1=O
II: Cc1cn([C@H]2C[C@H](O)[C@@H](CO[P@](=O)(O)O[P@@](=O)(O)OP(=O)(O)O)O2)c(=O)[nH]c1=O [dTTP, Deoxythymidine triphosphate]
query: Could you determine which record has the numerically smaller kobs ± standard deviation? Candidates: I and II In your reply, give the label of the chosen option.
result: I
(I: 1.8 s^–1, II: 8.6 s^–1)
